Molecular target: ETS1 (UniProt P14921)
Sequence: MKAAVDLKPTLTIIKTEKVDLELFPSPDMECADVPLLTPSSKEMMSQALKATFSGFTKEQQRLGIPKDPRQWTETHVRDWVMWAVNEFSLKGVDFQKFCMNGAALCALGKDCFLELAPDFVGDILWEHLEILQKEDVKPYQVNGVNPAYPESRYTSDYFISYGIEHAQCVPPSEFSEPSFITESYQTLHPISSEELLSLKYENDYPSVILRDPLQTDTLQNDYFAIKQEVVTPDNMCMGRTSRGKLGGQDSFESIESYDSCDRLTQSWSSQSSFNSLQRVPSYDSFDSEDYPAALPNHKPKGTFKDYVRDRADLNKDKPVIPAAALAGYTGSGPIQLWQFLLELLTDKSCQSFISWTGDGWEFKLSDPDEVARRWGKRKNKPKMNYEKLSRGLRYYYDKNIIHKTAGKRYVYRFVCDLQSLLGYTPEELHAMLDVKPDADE
Assay: ETS1 binding intensity (PBM fluorescence), ETS1 alone (arbitrary fluorescence units); higher = stronger binding
Details: ETS1 concentration 1 nM; RUNX1 concentration 0 nM
parameter: ETS1 binding intensity

{"primarySequence": "ACCCAGTAGGGGCCAGGATGTGGTGAAAAGAGAATT", "measuredNumber": 1610}
{"primarySequence": "AAGTGAAGAGCTTCCGCCGGGAGACCGCGGCTGCAG", "measuredNumber": 592}
{"primarySequence": "ACAGATCCAAGGAAGCATATCCCGCAAGCAACTGTT", "measuredNumber": 460}
{"primarySequence": "GATGGGCGAGTCAGGAAACCACAGCTCTGAGGGTGG", "measuredNumber": 607}
{"primarySequence": "AACCCGGAAGTGGACACGGAGCTCGGCTGCGGCTCC", "measuredNumber": 1750}
{"primarySequence": "GCGCGGACAGAGAAAGGATGTGGTATAGCAGAAAGT", "measuredNumber": 1500}
{"primarySequence": "AGTGGCTACCACTTCCTTCTCTTACCACAGTTCCTT", "measuredNumber": 442}
{"primarySequence": "CAGATTCGTGTTTCCGTGCCCGCAGCTCCGTCAGCT", "measuredNumber": 467}
{"primarySequence": "TCCCCACATCCTTTAAAACGATGAGATAACCACATG", "measuredNumber": 398}
{"primarySequence": "ACACCCCAGGAAGTGGCAGAGACCACAACAAGTCAG", "measuredNumber": 704}
{"primarySequence": "CTTCCTTCCCTTCCTTCTGCTCCCTCCCACAGCCGC", "measuredNumber": 519}
{"primarySequence": "AGCTTGCGCAGGAAGTCTGCGGCAGGAGGGCGTCCT", "measuredNumber": 1920}

====

Molecular target: RUNX1 (UniProt Q01196)
Sequence (Q01196 whole entry): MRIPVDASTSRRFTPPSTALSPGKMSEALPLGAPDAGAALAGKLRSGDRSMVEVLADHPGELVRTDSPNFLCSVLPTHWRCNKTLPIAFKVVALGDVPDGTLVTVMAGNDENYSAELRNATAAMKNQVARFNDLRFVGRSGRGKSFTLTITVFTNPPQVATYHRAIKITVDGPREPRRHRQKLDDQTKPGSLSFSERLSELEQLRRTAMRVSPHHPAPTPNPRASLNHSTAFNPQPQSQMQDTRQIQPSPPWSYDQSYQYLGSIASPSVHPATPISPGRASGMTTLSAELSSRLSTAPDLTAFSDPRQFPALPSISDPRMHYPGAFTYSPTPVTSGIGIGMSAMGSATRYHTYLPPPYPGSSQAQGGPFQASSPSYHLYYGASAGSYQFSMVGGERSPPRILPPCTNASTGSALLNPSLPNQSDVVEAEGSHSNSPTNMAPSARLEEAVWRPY
Assay: RUNX1 binding intensity (PBM fluorescence) in presence of ETS1, normalised to RUNX1-only experiment (arbitrary fluorescence units); higher = stronger binding
Settings: RUNX1 concentration 2 nM; ETS1 concentration 25 nM
Readings of RUNX1 binding intensity for the listed sequences

{"primarySequence": "CCATTTCCCCCATCACTTTGAATTGTGGTTCTTCTC", "testedOn": "RUNX1 (UniProt Q01196)", "RUNX1 binding intensity": 2920}
{"primarySequence": "TTCTGCTACATCCTGCCCACTCCCTGTGGCTTCCAC", "testedOn": "RUNX1 (UniProt Q01196)", "RUNX1 binding intensity": 3270}
{"primarySequence": "AGCTCCCCTCCCCGGAAACTTGACCACCTAGCCCAG", "testedOn": "RUNX1 (UniProt Q01196)", "RUNX1 binding intensity": 813}
{"primarySequence": "TGAAGTTGGTGTTTTCCGGGGGCGGTTTTTCCATTG", "testedOn": "RUNX1 (UniProt Q01196)", "RUNX1 binding intensity": 969}
{"primarySequence": "TTCAGGAAATGCAAACGGCTGCAGAGACCGCAGAGG", "testedOn": "RUNX1 (UniProt Q01196)", "RUNX1 binding intensity": 1090}
{"primarySequence": "CGGGAACACCCACTTCCGCCACAGACCTGCTCAAAA", "testedOn": "RUNX1 (UniProt Q01196)", "RUNX1 binding intensity": 3820}
{"primarySequence": "AGGTTCTCCAGAGGAGGAAGTGGTTTGCTGCAGGCT", "testedOn": "RUNX1 (UniProt Q01196)", "RUNX1 binding intensity": 971}
{"primarySequence": "CGGCGCCTTCCGCAGAGGGACTGCGGCTTTCTGCGC", "testedOn": "RUNX1 (UniProt Q01196)", "RUNX1 binding intensity": 1390}
{"primarySequence": "GCACTGTAGGCAGGATGTGGGCAGGGGAAACTCAGG", "testedOn": "RUNX1 (UniProt Q01196)", "RUNX1 binding intensity": 2870}
{"primarySequence": "GGAGGGGCTGGCCGGAAGTGAACCGCAGAGCACGCT", "testedOn": "RUNX1 (UniProt Q01196)", "RUNX1 binding intensity": 2980}
{"primarySequence": "ATTAAAAAAATTTCCTTTGTGGTCACTTAGTTATTA", "testedOn": "RUNX1 (UniProt Q01196)", "RUNX1 binding intensity": 1520}
{"primarySequence": "TTGGTGACCTCTTCCTGTCCGCTGTGGTGTTGTTAC", "testedOn": "RUNX1 (UniProt Q01196)", "RUNX1 binding intensity": 2350}
{"primarySequence": "CCCCCTGAACATCCGGGGCCTTTTAACCGCCCACGG", "testedOn": "RUNX1 (UniProt Q01196)", "RUNX1 binding intensity": 1790}
{"primarySequence": "TCAAGTTTGGTAACAGGATGTGGTAGGAGGAACACA", "testedOn": "RUNX1 (UniProt Q01196)", "RUNX1 binding intensity": 1730}
{"primarySequence": "GTAAGTAGGCCAGGAAGTGGTCACTGCAGCATGTGA", "testedOn": "RUNX1 (UniProt Q01196)", "RUNX1 binding intensity": 1440}
{"primarySequence": "TGCTTAGCGGGAAGTGCTTACACCACAAAACAAGAC", "testedOn": "RUNX1 (UniProt Q01196)", "RUNX1 binding intensity": 1750}
{"primarySequence": "AATCCACCGGAAACACTTAGACGCCGCAACCCCAGT", "testedOn": "RUNX1 (UniProt Q01196)", "RUNX1 binding intensity": 1590}
{"primarySequence": "TAACTACTTCCTTTTACTATCTACCACAATTTAATT", "testedOn": "RUNX1 (UniProt Q01196)", "RUNX1 binding intensity": 2810}
{"primarySequence": "CCCTCACCCCAGCTTTCCTGTGGTTAACCAAACCCC", "testedOn": "RUNX1 (UniProt Q01196)", "RUNX1 binding intensity": 9960}
{"primarySequence": "TTTGTAAGAGGAGGAAGTGGTTTGTAAGAGGAGAAA", "testedOn": "RUNX1 (UniProt Q01196)", "RUNX1 binding intensity": 1270}
{"primarySequence": "ACACAGGAAGGACGCACGCTCCCGCCCCAACCACAT", "testedOn": "RUNX1 (UniProt Q01196)", "RUNX1 binding intensity": 1060}
{"primarySequence": "AAATATAGTGCTAAAGGAAGTGGTTTTCATGCAACT", "testedOn": "RUNX1 (UniProt Q01196)", "RUNX1 binding intensity": 1080}
{"primarySequence": "GGACACAGGCTTCCGCGTTACCGACACCGCGTGGGG", "testedOn": "RUNX1 (UniProt Q01196)", "RUNX1 binding intensity": 934}
{"primarySequence": "CTGCGCGGCCGGAAGTCGGCGGTTTCCCAGACGACG", "testedOn": "RUNX1 (UniProt Q01196)", "RUNX1 binding intensity": 2820}
{"primarySequence": "TACACTCCCACATCCGCTGCGGCGCAACTCACAACA", "testedOn": "RUNX1 (UniProt Q01196)", "RUNX1 binding intensity": 6980}
{"primarySequence": "AGGGCTGAAACAGGATGTGGTGAGTGAGGTAGGGTG", "testedOn": "RUNX1 (UniProt Q01196)", "RUNX1 binding intensity": 3160}
{"primarySequence": "ACCCACCCGGAAGTCCTCCTGGCCCACAAGCTCCGC", "testedOn": "RUNX1 (UniProt Q01196)", "RUNX1 binding intensity": 1630}
{"primarySequence": "CCCGCCGGAAGGACGCGTCTGCGTCTCTGCGGCGAG", "testedOn": "RUNX1 (UniProt Q01196)", "RUNX1 binding intensity": 955}
{"primarySequence": "GTCACCATTTCCGGGCCTCCGCGGTGTCCCCACCCC", "testedOn": "RUNX1 (UniProt Q01196)", "RUNX1 binding intensity": 2900}
{"primarySequence": "AGCACTTCCGTTTGGGCAGGGCTGCGGGCCGGAGGG", "testedOn": "RUNX1 (UniProt Q01196)", "RUNX1 binding intensity": 2130}
{"primarySequence": "CCGCGAGCCGTCACTTCCTGTGGGCTGGGCCGAGCC", "testedOn": "RUNX1 (UniProt Q01196)", "RUNX1 binding intensity": 1940}
{"primarySequence": "CTCAGGTTATCTAGGAAATCTACCGCACGCTAAAGT", "testedOn": "RUNX1 (UniProt Q01196)", "RUNX1 binding intensity": 793}
{"primarySequence": "GGTGACACGGCCGGCTTCCTGCCGCAGAGCTCCTGG", "testedOn": "RUNX1 (UniProt Q01196)", "RUNX1 binding intensity": 1040}
{"primarySequence": "ACCCTTCCTGGAGCATTGTCGCAGCAACCACAACAG", "testedOn": "RUNX1 (UniProt Q01196)", "RUNX1 binding intensity": 1200}
{"primarySequence": "AGGCCCCGCCCCTTCCGCCCACAGAGCCCGCCACTT", "testedOn": "RUNX1 (UniProt Q01196)", "RUNX1 binding intensity": 1730}
{"primarySequence": "ACAGTCGCACCGGAAGCTGCCCGCGGTGTTGACACA", "testedOn": "RUNX1 (UniProt Q01196)", "RUNX1 binding intensity": 1360}
{"primarySequence": "CTCGTGCGTCACTTCCGCCCCGCAGACCCGCCCACT", "testedOn": "RUNX1 (UniProt Q01196)", "RUNX1 binding intensity": 2420}
{"primarySequence": "ACTTACAAAGGAAGTGACAGAACCACAGAAAAGACC", "testedOn": "RUNX1 (UniProt Q01196)", "RUNX1 binding intensity": 1240}
{"primarySequence": "GCCCCCGGCTGGGCAGGATGTGGTGGCAGCTGCAGG", "testedOn": "RUNX1 (UniProt Q01196)", "RUNX1 binding intensity": 1320}
{"primarySequence": "GGACAAAACATCATAGGAAGTGGGTTTTGGGGTGAG", "testedOn": "RUNX1 (UniProt Q01196)", "RUNX1 binding intensity": 914}
{"primarySequence": "ACAGAGAAGCTTCCTATTGTGGGATTCACCACCACC", "testedOn": "RUNX1 (UniProt Q01196)", "RUNX1 binding intensity": 942}
{"primarySequence": "GACATCTTCCGGTTGCTACAGGTTACGGCGGTTGCT", "testedOn": "RUNX1 (UniProt Q01196)", "RUNX1 binding intensity": 1640}
{"primarySequence": "GTTCTCAGCTTCCTGTTCACAGAGAAACCTCAGACA", "testedOn": "RUNX1 (UniProt Q01196)", "RUNX1 binding intensity": 1390}
{"primarySequence": "TCTTCTTCCTCCCCCACCCCAAAAGCCACAGGTGAC", "testedOn": "RUNX1 (UniProt Q01196)", "RUNX1 binding intensity": 1410}
{"primarySequence": "TCTCCTTTCAGGAAGCTGCACCCAAACCACCCTCAG", "testedOn": "RUNX1 (UniProt Q01196)", "RUNX1 binding intensity": 949}
{"primarySequence": "TACGTCACTTCCGGGCCGCCGTCCTGCGGGCAAGGG", "testedOn": "RUNX1 (UniProt Q01196)", "RUNX1 binding intensity": 2270}
{"primarySequence": "TGGGGAGCAGGAAGCTGGGGGCGGTTGTGGAGGGAC", "testedOn": "RUNX1 (UniProt Q01196)", "RUNX1 binding intensity": 867}
{"primarySequence": "GGCCGGCTTCCGGGGCGGGTGGAAAGGAGCCACAAG", "testedOn": "RUNX1 (UniProt Q01196)", "RUNX1 binding intensity": 1260}
{"primarySequence": "AACAGGAAGTGGTCTTAGAGATCATGCGGTTCAGAG", "testedOn": "RUNX1 (UniProt Q01196)", "RUNX1 binding intensity": 2350}
{"primarySequence": "GCCAGGGCAGGAAGTTGCTAACCGCCCCAGAGCAGG", "testedOn": "RUNX1 (UniProt Q01196)", "RUNX1 binding intensity": 1460}
